test: chemical genetic growth profiling, strain panel (AID 1159580);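 note: tested at 20 µM; growth read once vehicle control cultures reached saturation at 30 °C; lower values mean less growth of the strain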; conditions: S. cerevisiae deletion strains, growth OD, locus YLL026W
The campaign covered roughly 5,500 compounds. About 2,000 (36%) were called active. About 18% were inconclusive and are not listed. Cut-off read from the data, not from the text of the source: active = normalized growth mostly below about 0.91 (no sharp cut-off); inconclusive = no clear call, values can overlap the other calls; inactive = mostly above about 0.92. The list shows a part of the results.
Valid outcomes are listed here; reply with one: t (active), f (inactive)

Molecule	Label
Cn1nnnc1SCC1=C(C(=O)O)N2C(=O)C(NC(=O)C(O)c3ccccc3)C2SC1 (configuration not stated)	f
NCC(=O)CCC(=O)O	f
CCCCCCCCCCCCCCCC[n+]1ccccc1	t
CC1(C)O[C@@H]2CC3C4C[C@H](F)C5=CC(=O)C=CC5(C)C4C(O)CC3(C)[C@]2(C(=O)CO)O1 (some centres not stated)	f
Nc1nc(N)c2nc(-c3ccccc3)c(N)nc2n1	f
CC1=CCc2c(cc3oc(C)cc(=O)c3c2O)OC1	f
CC(=O)O[C@H]1C[C@@]2(C)[C@H](c3ccoc3)OC(=O)[C@H]3O[C@]32[C@@]2(C)C1[C@]1(C)C(C[C@H]2OC(C)=O)C(C)(C)[C@H](OC(C)=O)C[C@@H]1OC(C)=O (some centres not stated)	f
CC(=O)O[C@@H]1CC2C(C)(C)C(=O)CC[C@]2(C)C2CC[C@@]3(C)[C@H](c4ccoc4)OC(=O)C4OC43[C@@]21C (some centres not stated)	f
COc1c(O)cccc1O	f
COc1ccc(-c2cc(=O)c3c(OC(C)=O)cc(OC(C)=O)cc3o2)cc1	f

Per the records of this test, what outcome belongs to "CC(=O)Nc1ccc(OC(=O)c2ccccc2O)cc1" ?
f

Per the records of this test, what outcome belongs to "CC(=O)Oc1c(-c2ccccc2)oc2c(CC=C(C)C)c3c(c(OC(C)=O)c2c1=O)C=CC(C)(C)O3" ?
t

Per the records of this test, what outcome belongs to "COc1ccc(-c2cc(=O)c3c(O)c(OC)c(OC)c(OC)c3o2)cc1" ?
f

Per the records of this test, what outcome belongs to "CC(=O)Oc1ccc(-c2cc(=O)c3c(OC(C)=O)cc(OC(C)=O)cc3o2)cc1" ?
f

Per the records of this test, what outcome belongs to "Cc1cc2cc3c(C)cc(=O)oc3c(C)c2o1" ?
f

Per the records of this test, what outcome belongs to C[C@@H]1CC[C@@]2(OC1)OC1C(O)C3C4CC[C@H]5C[C@H](O[C@@H]6O[C@H](CO)[C@H](O[C@@H]7O[C@H](CO)[C@@H](O)[C@H](O[C@@H]8OC[C@@H](O)[C@H](O)[C@H]8O)[C@H]7O[C@@H]7O[C@H](CO)[C@H](O)[C@H](O[C@@H]8O[C@H](CO)[C@@H](O)[C@H](O)[C@H]8O)[C@H]7O)[C@H](O)[C@H]6O)[C@H](O)C[C@]5(C)C4CC[C@]3(C)C1[C@@H]2C (some centres not stated) ?
f
